Target: Proto-oncogene tyrosine-protein kinase receptor Ret (Homo sapiens);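 also: each listed value is an averaged inhibition figure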
Settings: at 1 µM
Short version: inhibition at least 4% is Yes, less is No.

- SAMPLE SMILES: "COc1cc2c(cc1Nc1nc(Nc3ccsc3C(N)=O)c3cc[nH]c3n1)N(C(=O)CN(C)C)CCC2"
  TARGET OR SYSTEM: "Proto-oncogene tyrosine-protein kinase receptor Ret (Homo sapiens)"
  ASSIGNED CATEGORY: "Yes"
- SAMPLE SMILES: "NC(=O)c1sc(-n2cnc3cc(C(F)(F)F)ccc32)cc1OCc1ccccc1Br"
  TARGET OR SYSTEM: "Proto-oncogene tyrosine-protein kinase receptor Ret (Homo sapiens)"
  ASSIGNED CATEGORY: "No"
- SAMPLE SMILES: "COc1cccc(COc2cc(-n3cnc4ccccc43)sc2C(N)=O)c1"
  TARGET OR SYSTEM: "Proto-oncogene tyrosine-protein kinase receptor Ret (Homo sapiens)"
  ASSIGNED CATEGORY: "Yes"

Field: next compound
Exam item: Decide: is the reported value of inhibition for `COc1cc(C=NNc2ncnc3c2cnn3Cc2ccccc2)ccc1O` equal to or greater than 4%?
Marked response: Yes
